This collection of values is drawn from patent US20220112187A1.

- STUDY TARGET: human TLR8 (Homo sapiens)
- Sequence (Q9NR97 27-1041): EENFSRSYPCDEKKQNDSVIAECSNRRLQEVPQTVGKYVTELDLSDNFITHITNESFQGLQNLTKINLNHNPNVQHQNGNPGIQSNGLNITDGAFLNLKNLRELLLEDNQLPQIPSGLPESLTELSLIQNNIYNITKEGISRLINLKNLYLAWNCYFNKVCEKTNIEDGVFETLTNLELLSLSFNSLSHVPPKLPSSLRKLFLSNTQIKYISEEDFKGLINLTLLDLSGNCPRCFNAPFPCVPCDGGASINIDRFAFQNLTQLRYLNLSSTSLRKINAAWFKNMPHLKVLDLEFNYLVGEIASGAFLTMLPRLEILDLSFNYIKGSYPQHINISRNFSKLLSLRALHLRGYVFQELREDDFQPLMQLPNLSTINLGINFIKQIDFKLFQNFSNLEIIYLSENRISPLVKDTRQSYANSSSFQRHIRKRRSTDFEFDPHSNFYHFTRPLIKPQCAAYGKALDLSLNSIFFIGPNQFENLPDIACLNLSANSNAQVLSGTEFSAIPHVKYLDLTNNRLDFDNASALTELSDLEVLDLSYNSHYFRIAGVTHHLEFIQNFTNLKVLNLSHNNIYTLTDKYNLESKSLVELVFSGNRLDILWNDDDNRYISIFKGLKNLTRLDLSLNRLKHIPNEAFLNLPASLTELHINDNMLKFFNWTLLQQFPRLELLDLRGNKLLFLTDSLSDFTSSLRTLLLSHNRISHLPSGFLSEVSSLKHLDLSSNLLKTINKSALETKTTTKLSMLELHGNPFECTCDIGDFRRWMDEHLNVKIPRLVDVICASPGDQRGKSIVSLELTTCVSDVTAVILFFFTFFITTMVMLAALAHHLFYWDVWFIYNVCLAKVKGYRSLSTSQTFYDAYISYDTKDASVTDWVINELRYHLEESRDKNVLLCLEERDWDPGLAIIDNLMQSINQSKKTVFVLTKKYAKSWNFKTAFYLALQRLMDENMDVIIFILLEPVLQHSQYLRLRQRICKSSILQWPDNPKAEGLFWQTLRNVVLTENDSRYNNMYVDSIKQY
- MEASUREMENT NOTES: HEK293-Blue-hTLR-8 cells assay (SEAP reporter, R848 stimulation)
- Type: cell-based
- STUDY CONDITIONS: HEK293-Blue-hTLR8 cells, R848 ligand, 20 hrs incubation
ENDPOINT NAME: IC50 (nM)

• C[C@@H]1CN(c2ccc(C#N)n3nccc23)C[C@H](CN2C3CNCC2COC3)O1 = 62
• C[C@@H]1CN(c2ccc(C#N)n3nccc23)C[C@H](CN2CCC3NCCC3C2)O1 (stereo partly shown) = 29
• C[C@@H]1CN(c2ccc(C#N)n3nccc23)C[C@H](CN2CC3CCC(C2)C3N)O1 (stereo partly shown) = 90
• C[C@@H]1CN(c2ccc(C#N)n3nccc23)C[C@H](CN2CC[C@H](N)[C@H](C)C2)O1 = 39
